System: RARb homodimer (NR concentration 270 nM)
Experiment: PBM binding z-score (relative to random genomic background probes); higher = stronger binding; sequences stand for … in GC…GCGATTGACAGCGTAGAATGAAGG
Experimental Readout: PBM binding z-score

{"columns": ["Record Sequence", "Measured"],
 "data": [
  ["TGAATGAGGTTATAAGAACAGGGAACGTTGCAAA", -0.0181],
  ["TCTCGGAGGACACGAAAGATCAGAGCTCGACATC", 0.303],
  ["TCATATAGGTAAGGGTGAAAGTCGAACGATATGA", 0.703],
  ["TCTATTAGTTGAAGGGCAACCAACGAGTCCGTTT", 1.4],
  ["CGTCAAAGTTCAACTAAGATAACGTAAAGCACGC", 3.75],
  ["AAAGACAGGTGATGAAGGTAACTCAGGCTATCAT", 0.516],
  ["ATCTATAGGTAAAGATAGTTCAGTGAATGCAAAT", 1.07],
  ["ATATGTAGGGTACATCCGGGTCATTCAGGCTATG", 2.84],
  ["TCATATAGGTAAACAGGTGAAAGCCCGTAAGTTA", 0.749],
  ["ACTAGTTAGTCAGCTGAGGTCACACACAATTCGG", 4.4],
  ["TCTTGTCGATCAAGCAGGTTAAGAAAGCCTGAGT", 0.296],
  ["CGAACCAGGGCATGAGTTGATAGCAAATGCCGAT", 0.207],
  ["GGAACGAGGGCAAAGTTTATAGCATCTGTCGACG", 1.8],
  ["GGAACGAGGGCATTAGAGTTGATAGCATGGCGAT", 0.848],
  ["CCTATAAGTTGACCATAAGGGCAACCGAAGCTCG", 2.31],
  ["CGAACTAGGTCATTGTCAGGACAGTGAATAGTAA", 2.62],
  ["TGAATGAGCTTATAAGATCAGGGAACGTTGCAAA", -1.21],
  ["GCTAGAAGGCCATTTGGGTCACTCAATGACGGGC", 2.47],
  ["GTACGAAGGTGAATAGGTCGTTGATGAGTAGGCG", 1.82],
  ["ACTTTCGGGTCAACGAGGTTATAGCACGCGTATA", 3.85],
  ["TCTTCTAGGTCAACGATGGTCAGCTAATCTGCTA", 3.76],
  ["ATCGAAAGGTCGTGAGGTGAGCATACAGAAAGGC", 3.19],
  ["CCTAGCATGCCAATCTGGGTCACTCAAGGCTTGA", 1.86],
  ["CCAGACAGGGGAAAGGTAACTCAGTCTGGTACGC", 0.183],
  ["CCGACTGGGGCATAGGTTACCATACTCAGTACGA", 0.786],
  ["TCGAGTAGGATACCAATGGGGCATTCAGCTTTCT", -0.451],
  ["AGTCAAAGTTTAGGACGAGGTAACGTAAAGCACG", 0.774]
]}

Just for reference, the supplement of paper PMC6555819 is where these values come from.
